These measurements were taken from patent US20080107658A1.

So I've got a bunch of binders here, and I need their IC50, FLIPR calcium mobilisation values.
# Tested target: rat nerve growth factor (beta-NGF) (rat, UniProt P25427 122-241)
# Sequence (P25427 122-241): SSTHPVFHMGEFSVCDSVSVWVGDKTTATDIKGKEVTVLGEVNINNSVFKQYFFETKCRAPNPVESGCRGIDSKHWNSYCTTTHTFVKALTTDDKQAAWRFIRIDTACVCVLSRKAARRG
# Test description: cell-based or functional assay
# value in pM; strip the unit string

### Prompt Reported IC50, FLIPR calcium mobilisation for 1165D4 human IgG4 (antibody, V domains shown) VH: EVQLVQSGAEVKKPGSSVKVSCKASGGTFSTYGISWVRQAPGQGLEWIGGIIPIFDTGNSAQSFQGRVTITADESTSTAYMEVSSLRSDDTAVYYCASSSRIYDLNPSLTAYYDMDVWGQGTMVTVSS VL: QAVLTQPSSVSTPPGQKVTISCSGSSSNIENNYVSWYQQLPGTAPKLLIYDNNKRPSGIPDRFSGSKSGTSATLGITGLQTGDEADYYCGTWDSSLSAWVFGGGTKLTVL : what is it?
### Response 150

### Prompt Another binder to look at: 1133C11 human IgG4 (antibody, V domains shown) VH: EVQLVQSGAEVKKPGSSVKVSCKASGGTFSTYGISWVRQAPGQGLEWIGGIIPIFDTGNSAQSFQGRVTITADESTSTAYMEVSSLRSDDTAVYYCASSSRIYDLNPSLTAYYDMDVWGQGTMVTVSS VL: QAVLTQPSSVSTPPGQKVTISCSGSSSNIGNNYVSWYQQLPGTAPKLLIYDNNKRPSGIPDRFSGSKSGTSATLGITGLQTGDEADYYCGTWDSSLSAWVFGGGTKLTVL
### Response 300

### Prompt Please answer likewise for 1127D9 human IgG4 (antibody, V domains shown) VH: EVQLVQSGAEVKKPGSSVKVSCKASGGTFSTYGISWVRQAPGQGLEWIGGIIPIFDTGNSAQSFQGRVTITADESTSTAYMEVSSLRSDDTAVYYCASSSRIYDYHTIAYYDMDVWGQGTMVTVSS VL: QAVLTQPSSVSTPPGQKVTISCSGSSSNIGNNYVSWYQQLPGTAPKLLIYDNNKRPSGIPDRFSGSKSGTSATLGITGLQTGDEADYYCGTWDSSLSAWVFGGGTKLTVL
### Response 220

### Prompt Entry to check: 1150F1 human IgG4 (antibody, V domains shown) VH: EVQLVQSGAEVKKPGSSVKVSCKASGGTFSTYGISWVRQAPGQGLEWIGGIIPIFDTGNSAQSFQDRVTITADESTSTAYMEVGSLRSDDTAVYYCASSSRIYDLNPSLTAYYDMDVWGHGTMVTVSS VL: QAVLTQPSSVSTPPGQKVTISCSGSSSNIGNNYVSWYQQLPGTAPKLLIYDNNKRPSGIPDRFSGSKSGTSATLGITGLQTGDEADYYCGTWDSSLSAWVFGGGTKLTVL
### Response 150

### Prompt Next up: 1127F9 human IgG4 (antibody, V domains shown) VH: EVQLVQSGAEVKKPGSSVKVSCKASGGTFSTYGISWVRQAPGQGLEWIGGIIPIFDTGNSAQSFQGRVTITADESTSTAYMKVSSLRSDDTAVYYCASSSRIYDYIPGMRPYYDMDVWGQGTMVTVSS VL: QAVLTQPSSVSTPPGQKVTISCSGNSSNIGNNYVSWYQQLPGTAPKLLIYDNNKRPSGIPDRFSGSRSGTLATLGITGLQTGDEADYYCGTWDSSLSAWVFGGGTKLTVL
### Response 140

### Prompt Let us now turn to 1211G10 human IgG4 (antibody, V domains shown) VH: EVQLVQSGAEVRKPGSSVKVSCKAYGGTFSTYGISWVRQAPGQGLEWVGGIIPIFDTRNSAQSFQGRVTITADESTSTAYMEVSSLRSDDTAVYYCASSSRIYDMVSTLIPYYDMDVWGQGTMVTVSS VL: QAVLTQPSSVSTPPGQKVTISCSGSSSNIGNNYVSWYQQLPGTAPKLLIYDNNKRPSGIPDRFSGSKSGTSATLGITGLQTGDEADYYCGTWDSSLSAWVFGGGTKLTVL
### Response 160

### Prompt Entry to check: 1155H1 human IgG4 (antibody, V domains shown) VH: EVQLVQSGAEVKKPGSSVKVSCKASGGTFSTYGISWVRQAPGQGLEWIGGIIPIFDTGNSAQSFQGRVTITADESTSTAYMEVSSLRSDDTAVYYCASSSRIYDFHLANKGYYDMDVWGQGTMVTVSS VL: QAVLTQPSSVSTPPGQKATISCSGSSSNIGNNYVSWYQQLPGTAPKLLIYDNNKRPSGIPDRFSGSKSGTSATLDITGLQTGDEADYYCGTWDSSLSAWVFGGGTKLTVL
### Response 180

### Prompt Next binder: 1131H2 human IgG4 (antibody, V domains shown) VH: EVQLVQSGAEVKKPGSTVKVSCKASGGTFSTYGISWVRQAPGQGLEWIGGIIPIFDTGNSAQSFQGRVTITADESTSTAYMEVSSLRSDDTAVYYCASSSRIYDLNPSLTAYYDMDVWGQGTMVTVSS VL: QAVLTQPSSVSTPPGQKVTISCSGTSSNIGNNYVSWYQQLPGTAPKLLIYDNNKRPSGIPDRFSGSKSGTSATLGITGLQTGDEADYYCGTWDSSLSAWVFGGGTKLTVL
### Response 110

### Prompt Would you mind doing 1021E5 human IgG4 (antibody, V domains shown) VH: EVQLVQSGAEVKKPGSSVKVSCKASGGTFSTYGISWVRQAPGQGLEWIGGIIPIFDTGNSAQSFQGRVTITADESTSTAYMEVSSLRSDDTAVYYCASSSRIYDYAGGDHYYYDMDVWGQGTMVTVSS VL: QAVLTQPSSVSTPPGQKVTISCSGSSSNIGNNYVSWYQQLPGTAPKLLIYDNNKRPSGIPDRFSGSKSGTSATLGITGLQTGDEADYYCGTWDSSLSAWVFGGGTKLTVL as well?
### Response 75000

### Prompt // query: 1132H9 human IgG4 (antibody, V domains shown) VH: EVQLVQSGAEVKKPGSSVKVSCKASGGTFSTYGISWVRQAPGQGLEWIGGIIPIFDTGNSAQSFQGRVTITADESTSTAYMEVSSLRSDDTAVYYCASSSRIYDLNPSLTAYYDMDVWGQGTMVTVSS VL: QAVLTQPSSVSTPPGQKVTISCSGSSSDIGNNYVSWYQQLPGTAPKLLIYDNNKRPTGIPDRFSGSKSGTSATLGITGLQTGDEADYYCGTWDSSLSAWVFGGGTKLTVL
### Response 130
